// data source = PubChem BioAssay AID743445

Each entry below carries its recorded inhibition.
- STUDY_SYSTEM: Histone-lysine N-methyltransferase NSD2 (Homo sapiens)
- ASSAY_SUMMARY: blockers of NSD2 lysine methylation activity – biochemical, AlphaScreen, single concentration, set 2, primary screen (AID 743445)
- CONDITIONS: NSD2 peptide methylation, 120 min, at 12.5 µM, hits give high values
About 1,700 (0.55%) of roughly 310,000 compounds were called active. Many of the other results were omitted from the sample, so actives are more common in it than they were.

MOLECULE	STUDY_SYSTEM	inhibition / %
CCC(C)(O)C(=O)OC1C(=O)OC2CC3C(C)=CC(=O)C(O)C3(C)C3C4(O)OCC23C1C(C)C4O (stereo not drawn)	Histone-lysine N-methyltransferase NSD2 (Homo sapiens)	-0.572
O=P(OC1=CCCCC1)(c1ccccc1)c1ccccc1	Histone-lysine N-methyltransferase NSD2 (Homo sapiens)	1.12
Cc1cc(N2C(=O)C3CCCN3C2c2ccc(Cl)c(Cl)c2)no1 (stereo not drawn)	Histone-lysine N-methyltransferase NSD2 (Homo sapiens)	84.4
Cc1cc(/C=C2/C(=O)NC(=O)N(Cc3ccco3)C2=O)c(C)n1-c1ccc(C(=O)O)cc1	Histone-lysine N-methyltransferase NSD2 (Homo sapiens)	36.8
c1cc2c(c(NC3=NCCCS3)c1)CCCC2	Histone-lysine N-methyltransferase NSD2 (Homo sapiens)	8.89
CC(=O)OC1C2(CC3N4C(=O)C5(CO)SSC4(CC31O)C(=O)N5C)OC(C)C(C)(C)C2=O (stereo not drawn)	Histone-lysine N-methyltransferase NSD2 (Homo sapiens)	133
O=C1NC(=O)C(Cc2ccccc2)C(=O)N1	Histone-lysine N-methyltransferase NSD2 (Homo sapiens)	-1.35
CO[C@H]([C@H](C)/C=C/N(C)C=O)[C@@H](C)C(=O)CC[C@H](C)[C@H](O)[C@H](C)[C@H]1OC(=O)/C=C/C(C)=C/[C@H](O)[C@H](OC)C[C@@H]2C=CC[C@@H](C[C@H](OC)[C@@]3(CO3)[C@@H](OC)C[C@@H](OC)[C@@H]1C)O2	Histone-lysine N-methyltransferase NSD2 (Homo sapiens)	-2.92
O=C1NC(=O)C(CCOc2ccccc2)(CCc2ccccc2)C(=O)N1	Histone-lysine N-methyltransferase NSD2 (Homo sapiens)	1.16
Cc1c(C(=O)O)cccc1-n1c(C)cc(/C=C2\C(=O)NC(=O)N(c3ccc4c(c3)OCO4)C2=O)c1C	Histone-lysine N-methyltransferase NSD2 (Homo sapiens)	65.9
C[C@]12CCCCC1=CC(=O)C1C2CC[C@@]2(C)C1C[C@@H](F)[C@@H]2O (stereo partly drawn)	Histone-lysine N-methyltransferase NSD2 (Homo sapiens)	-1.58
COc1ccc(C2C=C(C)Oc3c2c(=O)oc2ccccc32)cc1OC (stereo not drawn)	Histone-lysine N-methyltransferase NSD2 (Homo sapiens)	1.06
O=c1c2ccccc2[nH]c(=S)n1-c1cccc(Cl)c1	Histone-lysine N-methyltransferase NSD2 (Homo sapiens)	-7.59
